For each of the compounds below, state its pIC50.
- TEST_TARGET: NLRP3 (Homo sapiens (Human), UniProt Q96P20)
- Sequence (Q96P20 whole entry): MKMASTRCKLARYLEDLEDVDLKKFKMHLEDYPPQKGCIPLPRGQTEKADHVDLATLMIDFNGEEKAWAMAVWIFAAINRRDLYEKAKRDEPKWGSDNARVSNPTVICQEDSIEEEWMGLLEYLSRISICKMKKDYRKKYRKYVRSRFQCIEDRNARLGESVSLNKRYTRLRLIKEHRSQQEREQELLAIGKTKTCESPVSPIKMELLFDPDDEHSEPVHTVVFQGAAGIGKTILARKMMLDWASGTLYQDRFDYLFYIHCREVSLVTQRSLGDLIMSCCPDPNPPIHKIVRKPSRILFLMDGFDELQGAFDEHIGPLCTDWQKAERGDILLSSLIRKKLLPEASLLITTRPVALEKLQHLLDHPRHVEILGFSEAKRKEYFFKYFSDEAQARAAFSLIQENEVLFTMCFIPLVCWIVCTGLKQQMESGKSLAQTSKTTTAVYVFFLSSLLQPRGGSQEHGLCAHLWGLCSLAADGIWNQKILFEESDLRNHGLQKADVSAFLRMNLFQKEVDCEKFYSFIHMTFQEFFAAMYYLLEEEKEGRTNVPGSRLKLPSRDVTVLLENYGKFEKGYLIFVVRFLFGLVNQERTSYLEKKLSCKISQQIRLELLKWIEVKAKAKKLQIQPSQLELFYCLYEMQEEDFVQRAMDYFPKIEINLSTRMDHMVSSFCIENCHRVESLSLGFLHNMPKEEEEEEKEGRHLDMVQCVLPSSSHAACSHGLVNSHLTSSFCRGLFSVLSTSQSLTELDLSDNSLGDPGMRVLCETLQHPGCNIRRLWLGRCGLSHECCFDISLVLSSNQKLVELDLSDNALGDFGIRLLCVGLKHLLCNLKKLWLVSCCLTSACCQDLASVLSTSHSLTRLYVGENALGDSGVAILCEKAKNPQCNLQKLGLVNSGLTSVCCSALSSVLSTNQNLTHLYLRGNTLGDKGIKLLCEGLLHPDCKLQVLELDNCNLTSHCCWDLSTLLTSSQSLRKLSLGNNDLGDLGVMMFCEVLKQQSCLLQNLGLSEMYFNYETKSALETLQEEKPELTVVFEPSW
- PROTOCOL_SUMMARY: Human whole blood IL1β release assay (LPS + nigericin)
- Type: cell-based
- EXPERIMENTAL_CONDITIONS: human whole blood, 1 μg/ml LPS, nigericin, IL-1β release; read-out: HWB IC50
pIC50: −log10 of the molar value. Where a name gives a salt, the structure may show the parent alone.

GET /values?readout=pIC50&item= O=C(Nc1c2c(cc3c1CCC3)CCC2)NS(=O)(=O)C1CCN(C2CC2)C1 (stereo not shown) [Example 39, potassium salt]
5.00 to 6.00

Query (compound): CC(C)N1CCCC(S(=O)(=O)NC(=O)Nc2c3c(cc4c2CCC4)CCC3)C1 (stereo not shown) [Example 31, potassium salt] ; field requested: pIC50
> 6.00

Given CC(C)n1cc(S(=O)(=O)NC(=O)Nc2c3c(cc4c2CCC4)CCC3)ccc1=O [Example 185, sodium salt] , state its recorded pIC50.
5.00 to 6.00

Would you mind telling me what pIC50 value was observed for CCN1CC(N2CCC(S(=O)(=O)NC(=O)Nc3c4c(cc5c3CCC5)CCC4)CC2)C1 [Example 24, potassium salt] ?
> 6.00

Report pIC50 for O=C(Nc1c2c(cc3c1CCC3)CCC2)NS(=O)(=O)C1CN(Cc2ccncc2)C1 [Example 103, potassium salt] please.
5.00 to 6.00

Endpoint output: pIC50 of O=C(Nc1c2c(cc3c1CCC3)CCC2)NS(=O)(=O)C1CNc2ccccc2C1 (stereo not shown) [Example 35, potassium salt] . Value?
< 5.00

Query (compound): O=C(Nc1c2c(cc3c1CCC3)CCC2)NS(=O)(=O)C1CN(C2CSC2)C1 [Example 109, potassium salt] ; field requested: pIC50
> 6.00

* * *

- PROTOCOL_SUMMARY: PK, intravenous administration
- Assay type: in vivo, male Sprague Dawley rats
- EXPERIMENTAL_CONDITIONS: male, Sprague Dawley, plasma; rat, intravenous, dose 1.46 mg/kg; read-out: Cl
Counter-ions that a name gives are not always drawn.
EXPERIMENTAL_ENDPOINT: clearance
Write the figure, then the unit, nothing else.

Recorded clearance of CCN1CCC(S(=O)(=O)NC(=O)Nc2c3c(cc4c2CCC4)CCC3)C1 (stereo not shown) [Example 37, potassium salt] , please.
10.8 mL/min/kg

* * *

- TEST_TARGET: NLRP3 (Homo sapiens (Human), UniProt Q96P20)
- PROTOCOL_SUMMARY: THP-1 cells pyroptosis assay (LPS + nigericin, resazurin read-out)
- Assay type: cell-based
- EXPERIMENTAL_CONDITIONS: 1 μg/ml LPS, 5 μM nigericin
Where a name gives a salt, the structure may show the parent alone.
Assign IC50 to each entry below.

Can you look up the measured IC50 of Cn1ccc(CN2CC(S(=O)(=O)NC(=O)Nc3c4c(cc5c3CCC5)CCC4)C2)cc1=O [Example 141, potassium salt] for me?
< 1000 nM

Please report the recorded IC50 for COC(=O)CN1CCC(S(=O)(=O)NC(=O)Nc2c3c(cc4c2CCC4)CCC3)CC1 [Example 21, potassium salt] .
1000 to 10000 nM

Return reported IC50; argument: CS(=O)(=O)N1CCC(S(=O)(=O)NC(=O)Nc2c3c(cc4c2CCC4)CCC3)CC1 [Example 29, potassium salt]
1000 to 10000 nM

Fill in: IC50 of O=C(Nc1c2c(cc3c1CCC3)CCC2)NS(=O)(=O)C1CN(CC2COC2)C1 [Example 101, potassium salt] is ___
< 1000 nM

Can you share its IC50? I mean this molecule: CCN1CC(S(=O)(=O)NC(=O)Nc2c3c(cc4c2CCC4)CCC3)Cc2ccccc21 (stereo not shown) [Example 66, potassium salt]
< 1000 nM

So what's the measured IC50 for this one? CC(C)NC(=O)N1CCC(S(=O)(=O)NC(=O)Nc2c3c(cc4c2CCC4)CCC3)CC1 [Example 5, potassium salt]
< 1000 nM

Which IC50 value is on record for CCC(=O)N1CCC(S(=O)(=O)NC(=O)Nc2c3c(cc4c2CCC4)CCC3)CC1 [Example 10, potassium salt] ?
1000 to 10000 nM
